Assay: 14C assay with IPTG-induced recombinant E. coli cells: 14CO2 captured from [14C]-carboxyl-labeled dicamba
Conditions: induced recombinant E. coli cells, [14C]-carboxyl-labeled dicamba, 14CO2 capture
Property: Dicamba Decarboxylase Activity

1. 77 (protein, Burkholderia xenovorans) MALIDLHAHAPHPGYYNQHPHWGPFFERHEDGDVKLRVGDWILTLGSPERKALVRAGKGPTVEEYQARWADPKVRLAGMDAAGQNAQVVSVPSHCYMYWAEKEFSVPFATKVNDTFAEYCSAAPDRLMFWAHAALNAPEQAALELRRACTELGAKGLVAGGANFGGLEFDSPELDPVWKVLCDLDLPMFIHGYNQSVTWGKKANDDRYETTAIVGMQYDETRCFWNLVCGGVLDRFPGLKVYITHGGGYVPYQLGRLAQCNGNLDVAHNKKPVLEYLKNNFYFDVELHEVPMRQALIDIIGADRVLYGSNFGGSDAVRHDLTEGLRLSDDDLQKIRWKNACKLLHLDPAKIGEPAKKQAVSA	No
2. 8 (protein, listed as Metarhizium anisopliae) MARGKINFEEAFELPTLADSSREQAALYIAPKDLDRYIYHIKHPLGERLQLANSHGIGYTIYSLTVPGIQGIPDQSKAEQHATTVNDWIANEIKDHRDRLGAFAALSMHDAAQAAAELERCVRQHGFHGALLNNYQHAGPDGETYLFYDQPAYDVFWQKCVELDVPVYLHPAAPAGNYYKQMYAQRKYLVGPPLSFANDVSLHLLGLVTNGVFDRFPKLKVVVGHLGEHIPFDFWRISHWLEDVERPLAAGRGDVMSKKDLLYYFKNNIWVTTSGHFSTPTVRYVADYLGPERIMFSVDTPYETIENGVGWFDGEEDALTRALGGEDGYKKVARENAKKLFKLTKYHDCDA	Low
